- Experimental Details: Stability of compounds in human liver microsome
- Format: in vitro ADME
- Condition Parameters: human liver microsomes, NADPH, 37° C., sampling 0-120 min; read-out: Human liver microsome T1/2
Listed below: half-life at 0.97 µg/mL values for each entry.

[in] Fill in: half-life at 0.97 µg/mL of CN1CCN([C@@H]2CCCN(c3cnc(C(N)=O)c(Nc4ccc(C5CCN(CC6CCN(c7ccc8c(c7)C(=O)N(C7CCC(=O)NC7=O)C8=O)CC6)CC5)cc4)n3)C2)C1=O (some centres unmarked) is ___
[out] 5.18 min

[in] Queued: COc1ccc(C(=O)N2CCC(CN3CCN(c4ccc(Nc5nc(N6CCC[C@@H](N7CCN(C)C7=O)C6)nnc5C(N)=O)cc4F)CC3)C2)cc1N1CCC(=O)NC1=O (some centres unmarked)
[out] > 30 min

[in] Queued: CN1CCN([C@@H]2CCCN(c3nnc(C(N)=O)c(Nc4ccc(N5CCN(CC6CCN(c7ccc(C(=O)NC8CCC(=O)NC8=O)nc7)CC6)CC5)c(F)c4)n3)C2)C1=O (some centres unmarked)
[out] > 30 min

[in] Queued: CN1CCN([C@@H]2CCCN(c3nnc(C(N)=O)c(Nc4ccc(N5CCN(CC6CCN(c7ccc(C(=O)NC8CCC(=O)NC8=O)cn7)C6)CC5)c(F)c4)n3)C2)C1=O (some centres unmarked)
[out] > 30 min

[in] Queued: CN1CCN([C@@H]2CCCN(c3nnc(C(N)=O)c(Nc4ccc(N5CCN(CC6CCN(c7ccc(NC8CCC(=O)NC8=O)c(F)c7)CC6)CC5)c(F)c4)n3)C2)C1=O (some centres unmarked)
[out] > 30 min

---

- Experimental Details: Stability of compounds in human liver microsome
- Format: in vitro ADME
- Condition Parameters: human liver microsomes, NADPH, 37° C., sampling 0-120 min; read-out: Human liver microsome T1/2
Listed below: half-life at 0.97 µg/mL values for each entry.

[[record]]
molecule = "CN1CCN([C@@H]2CCCN(c3nnc(C(N)=O)c(Nc4ccc(N5CCN(CC6CCN(c7ccc(C(=O)N[C@H]8CCC(=O)NC8=O)nc7)CC6)CC5)c(F)c4)n3)C2)C1=O"
readout_type = "half-life at 0.97 µg/mL"
result = "> 30 min"


[in] Fill in: half-life at 0.97 µg/mL of CN1CCN([C@@H]2CCCN(c3nnc(C(N)=O)c(Nc4ccc(N5CCN(CC6CCN(c7ccc8c9c([nH]c8c7)C(=O)N(C7CCC(=O)NC7=O)C9)CC6)CC5)c(F)c4)n3)C2)C1=O (some centres unmarked) is ___
[out] > 30 min

[in] Queued: Cc1ccc(C(=O)N2CCC(CN3CCN(c4ccc(Nc5nc(N6CCC[C@@H](N7CCN(C)C7=O)C6)nnc5C(N)=O)cc4F)CC3)C2)cc1N1CCC(=O)NC1=O (some centres unmarked)
[out] > 30 min

[in] Queued: CN1CCN([C@@H]2CCCN(c3nnc(C(N)=O)c(Nc4ccc(N5CCN(CC6CCN(C(=O)c7ccc(F)c(N8CCC(=O)NC8=O)c7)C6)CC5)c(F)c4)n3)C2)C1=O (some centres unmarked)
[out] > 30 min

[in] Queued: CN1CCN([C@@H]2CCCN(c3nnc(C(N)=O)c(Nc4ccc(N5CCN(CC6CCN(c7ccc(C(=O)NC8CCC(=O)NC8=O)c8c7OCO8)CC6)CC5)c(F)c4)n3)C2)C1=O (some centres unmarked)
[out] > 30 min
